- assay-system: Muscarinic acetylcholine receptor M3 (Homo sapiens)
- protocol-description: Antagonist activity at recombinant human muscarinic M3 receptor assessed as inhibition of agonist-induced effect at 10 uM by aequorin reporter based assay
- Format: functional
value-kind: inhibition (%)

(I) CN(CCCNC(=O)c1ccc(C(F)(F)F)cc1)Cc1ccccc1
(II) COc1cccc(C(=O)NCCCN(C)Cc2ccccc2)c1
(III) COc1ccc(C(=O)NCCCN(C)Cc2ccccc2)cc1
Inquiry: Arrange these compounds by their inhibition, starting with the largest number. As an answer, provide the labels arranged in the order called for.
Reply text: I, II, III
(I: 36%, II: 2%, III: 0%)

(1) CN(CCNC(=O)c1ccc(Cl)cc1)Cc1ccccc1
(2) CN(CCCNC(=O)c1ccc(Cl)cc1)Cc1ccccc1
Inquiry: Between 1 and 2 , which one shows the smaller inhibition number? Bench note: the answer is the label of the chosen record.
Reply text: 2
(2: 23%, 1: 35%)

(1) CN(CCNC(=O)c1ccc([N+](=O)[O-])cc1)Cc1ccccc1
(2) CN(CCCNC(=O)c1cccc(Br)c1)Cc1ccccc1
Inquiry: Among 1 and 2 , which shows a numerically higher inhibition result? // return label of chosen record
Reply text: 2
(2: 43%, 1: 21%)

Where do the numbers come from? From ChEMBL document CHEMBL4130363.
